- Assayed target: PfThrRS (Plasmodium falciparum)
- Construct: made in house; host or cells: E. coli BL21(DE3)
- Run description: In vitro PfThrRS inhibition assay (aminoacylation activity, ATP consumption by Kinase-Glo luminescence)
- Assay type: biochemical
- Details: Table SI1, adenosine binding subsite substituent; fraction of PfThrRS inhibited at 100 µM; read-out: ThrRS inhibition @100 µM, %
inhibition at 100 µM below 60% gives N; inhibition at 100 µM at or above it gives Y.

Challenge: Reported inhibition at 100 µM at or above 60%? O=C(Nc1cccc(C(F)(F)F)c1)c1cccc(NS(=O)(=O)c2ccc(O)c(C(=O)O)c2)c1
Response given: Y

Challenge: Is inhibition at 100 µM for O=C(O)c1cc(S(=O)(=O)Nc2cccc(Cl)c2)ccc1O at or above 60%?
Response given: Y

Challenge: Determine whether measured inhibition at 100 µM meets or exceeds 60% for Cc1ccc(NS(=O)(=O)c2ccc(O)c(C(=O)O)c2)cc1
Response given: Y

Challenge: Tell me whether inhibition at 100 µM is at least 60% here: O=C(O)c1cc(S(=O)(=O)Nc2ccc(Cc3ccccc3)cc2)ccc1O
Response given: Y

Challenge: Determine whether measured inhibition at 100 µM meets or exceeds 60% for O=C(O)c1cc(S(=O)(=O)Nc2ccc(Br)cc2)ccc1O
Response given: Y

Challenge: # bool: inhibition at 100 µM of CCCCc1ccc(NS(=O)(=O)c2ccc(O)c(C(=O)O)c2)cc1 >= 60%
Response given: Y

Challenge: Confirm if inhibition at 100 µM reported for the compound O=C(O)c1cc(S(=O)(=O)Nc2ccc3oc(=O)sc3c2)ccc1O is 60% or above.
Response given: N

Challenge: Textbook exercise: given the entry O=C(O)c1cc(S(=O)(=O)Nc2cccc(-c3ccccc3)c2)ccc1O , state whether its inhibition at 100 µM is greater than or equal to 60%.
Response given: N

Challenge: Is the recorded value of inhibition at 100 µM equal to or greater than 60% for this compound? O=C(O)c1cc(S(=O)(=O)Nc2ccccc2)ccc1O
Response given: Y

Challenge: In plain terms: is recorded inhibition at 100 µM at least 60% for O=C(O)c1cc(S(=O)(=O)Nc2cccc3ccccc23)ccc1O ?
Response given: N

---

- Assayed target: PfThrRS (Plasmodium falciparum)
- Construct: made in house; host or cells: E. coli BL21(DE3)
- Sequence (Q8IIA4 21-1013): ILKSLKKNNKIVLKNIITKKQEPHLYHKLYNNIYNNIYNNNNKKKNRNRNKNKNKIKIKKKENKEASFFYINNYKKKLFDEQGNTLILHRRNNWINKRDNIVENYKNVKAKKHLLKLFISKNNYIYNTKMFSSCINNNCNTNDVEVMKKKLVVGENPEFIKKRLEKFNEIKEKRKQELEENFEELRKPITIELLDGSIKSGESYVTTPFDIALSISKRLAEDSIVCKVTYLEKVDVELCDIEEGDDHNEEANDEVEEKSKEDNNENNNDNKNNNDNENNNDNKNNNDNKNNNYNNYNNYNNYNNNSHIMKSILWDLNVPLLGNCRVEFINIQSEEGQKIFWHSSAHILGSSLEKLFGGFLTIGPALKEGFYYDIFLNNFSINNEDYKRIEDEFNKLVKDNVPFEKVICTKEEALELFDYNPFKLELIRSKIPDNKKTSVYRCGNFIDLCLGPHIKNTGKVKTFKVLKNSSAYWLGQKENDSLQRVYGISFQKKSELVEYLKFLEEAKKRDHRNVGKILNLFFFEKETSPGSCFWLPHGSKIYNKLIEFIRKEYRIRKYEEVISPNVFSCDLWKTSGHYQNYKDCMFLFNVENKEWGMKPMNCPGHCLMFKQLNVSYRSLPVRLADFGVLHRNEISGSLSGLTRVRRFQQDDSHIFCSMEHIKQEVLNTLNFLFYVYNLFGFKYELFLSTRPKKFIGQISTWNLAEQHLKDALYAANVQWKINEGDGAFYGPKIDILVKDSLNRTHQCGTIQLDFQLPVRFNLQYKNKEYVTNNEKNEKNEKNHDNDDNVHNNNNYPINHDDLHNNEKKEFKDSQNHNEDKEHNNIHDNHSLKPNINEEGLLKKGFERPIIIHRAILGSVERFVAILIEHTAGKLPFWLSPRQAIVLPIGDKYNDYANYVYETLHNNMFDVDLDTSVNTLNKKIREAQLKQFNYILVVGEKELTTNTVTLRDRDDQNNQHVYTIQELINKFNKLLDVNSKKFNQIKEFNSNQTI
- Run description: In vitro PfThrRS inhibition assay (aminoacylation activity, ATP consumption by Kinase-Glo luminescence)
- Type: biochemical
- Details: Table SI3, zinc ion binding group; fraction of PfThrRS inhibited at 100 µM; read-out: ThrRS inhibition @100 µM, %
Label label 1 for high-side inhibition at 100 µM (at or above 2%) and label 0 for low-side inhibition at 100 µM (below it).

Challenge: Is the recorded value of inhibition at 100 µM equal to or greater than 2% for this compound? COC(=O)c1cc(S(=O)(=O)Nc2ccccc2)ccc1O [7b]
Response given: label 1

Challenge: Does the compound O=C(NO)c1cc(S(=O)(=O)Nc2ccccc2)ccc1O [7c] have recorded inhibition at 100 µM that is 2% or more?
Response given: label 1

Challenge: Check if inhibition at 100 µM >= 2% (inclusive). Item: O=C(O)c1cc(S(=O)(=O)Nc2ccccc2)ccc1S [7d]
Response given: label 1

Challenge: Hi team, for COc1ccc(S(=O)(=O)Nc2ccccc2)cc1C(=O)O [7e] , is the recorded inhibition at 100 µM at or above 2%?
Response given: label 1

Challenge: Can O=C(O)c1cc(S(=O)(=O)Nc2ccccc2)ccc1F [7g] be said to have inhibition at 100 µM at or above 2%?
Response given: label 0
